Each entry below carries its recorded EC50.
test system: p53 responsive β-lactamase reporter in HCT116 cells; assay: cells; format: cell-based; conditions: 0% FBS 4Hr; read-out: p53 reporter assay: EC50
Positions of bridges follow the written chain, without caps; N, C: chain ends. Non-standard residues stand in square brackets, D forms with d. Residues, ends and D or L forms follow the SMILES beside them. R5 = C=CCCC[C@@](C)(N)C(=O)O
Metric: EC50 (µM)

{"columns": ["Compound", "Value Relation Sign", "Meas Value"],
 "data": [
  ["CC(=O)N[C@@H](CCCCN=[N+]=[N-])C(=O)NCCC(=O)N[C@@H](CC(C)C)C(=O)N[C@H](C(=O)N[C@@H](Cc1ccccc1)C(=O)N[C@]1(C)CCCCCCC=CCCC[C@@](C)(C(=O)N2CCC[C@@H]2C(=O)N2CCC[C@@H]2C(=O)N2CCC[C@@H]2C(=O)N2CCC[C@@H]2C(=O)N2CCC[C@@H]2C(=O)N2CCC[C@@H]2C(N)=O)NC(=O)[C@H](CC2CCC2)NC(=O)[C@H](CCC(N)=O)NC(=O)[C@H](C)NC(=O)[C@H](Cc2c[nH]c3ccccc23)NC(=O)[C@H](Cc2ccc(O)cc2)NC(=O)[C@H](CCC(=O)O)NC1=O)[C@@H](C)O", ">", 50.4],
  ["CC(=O)N[C@H](C(=O)N[C@@H](CO)C(=O)N[C@@H](Cc1ccccc1)C(=O)N[C@]1(C)CCCCCC/C=C\\CCC[C@@](C)(C(N)=O)NC(=O)[C@H](CC(C)C)NC(=O)[C@H](CC(C)C)NC(=O)[C@H](C)NC(=O)[C@H](Cc2c[nH]c3ccccc23)NC(=O)[C@H](Cc2ccc(O)cc2)NC(=O)[C@H](CCC(=O)O)NC1=O)[C@@H](C)O", "=", 5.78],
  ["CC(=O)N[C@H](C(=O)N[C@@H](CO)C(=O)N[C@@H](Cc1ccccc1)C(=O)N[C@]1(C)CCCCCCC=CCCC[C@@](C)(C(=O)N[C@@H](CCC(=O)O)C(=O)N[C@@H](CC(N)=O)C(=O)N[C@H](Cc2ccccc2)C(N)=O)NC(=O)[C@H](CC(C)C)NC(=O)[C@H](CC(C)C)NC(=O)[C@H](C)NC(=O)[C@H](Cc2c[nH]c3ccccc23)NC(=O)[C@H](Cc2ccc(O)cc2)NC(=O)[C@H](CCC(=O)O)NC1=O)[C@@H](C)O", "=", 5.28],
  ["CC(=O)N[C@H](C(=O)N[C@@H](CO)C(=O)N[C@@H](Cc1ccccc1)C(=O)N[C@]1(C)CCCC=CCCC[C@](C)(C(=O)N[C@@H](CC(C)C)C(=O)N[C@@H](CC(C)C)C(=O)N[C@@H](CO)C(=O)N[C@@H](CCC(=O)O)C(=O)N[C@@H](CC(N)=O)C(N)=O)NC(=O)[C@H](Cc2c[nH]c3ccccc23)NC(=O)[C@H](Cc2ccc(O)cc2)NC(=O)[C@H](CCC(=O)O)NC1=O)[C@@H](C)O [MP-2087] (Ac-TSF[R5]EYW[R5]LLSEN-NH2; staple 4-8)", "=", 24.7],
  ["CC(=O)N[C@H](C(=O)N[C@@H](CO)C(=O)N[C@@H](Cc1ccccc1)C(=O)N[C@]1(C)CCCCCCC=CCCC[C@@](C)(C(=O)N[C@@H](CCC(=O)O)C(=O)N[C@@H](CC(N)=O)C(=O)N[C@@H](C)C(N)=O)NC(=O)[C@H](CC(C)C)NC(=O)[C@H](CC(C)C)NC(=O)[C@H](C)NC(=O)[C@H](Cc2c[nH]c3ccccc23)NC(=O)[C@H](Cc2ccc(O)cc2)NC(=O)[C@H](CCC(=O)O)NC1=O)[C@@H](C)O", "=", 22.3]
]}
